Recorded measurements of tissue uptake at 1 h, one per entry
- Assay procedure: in vivo
- Test context: male, NRG, mouse, iv, total radioactivity, Biodistribution Bone Mean
Numbered stars: 1 amine (or outer) side, 2 acyl side, 3 side chain; on linkers, the order of the positions; unused ones are H or OH. Square brackets hold non-standard residues; d marks the D form. Peptide text beside a SMILES is read from it. * marks the point of attachment. DOTA = O=C(O)CN1CCN(CC(=O)O)CCN(CC(=O)*)CCN(CC(=O)O)CC1; Leuψ(CH2N)ThzNH2 = CC(C)C[C@@H](CN1CSC[C@H]1C(N)=O)N*; NMeH = CN[C@@H](Cc1c[nH]cn1)C(=O)O; X1 = O=C(CN1CCC(N[*:1])CC1)[*:2]; Tle = CC(C)(C)[C@H](N)C(=O)O; Thz = O=C(O)[C@@H]1CSCN1
Entry rule: numbers only, all in %ID/g.

Before answering, review these 4 worked examples.
Data request, read-out tissue uptake at 1 h, for CC(C)C[C@H](NC(=O)[C@H](Cc1cnc[nH]1)N(C)C(=O)CNC(=O)[C@@H](NC(=O)[C@H](C)NC(=O)[C@H](Cc1c[nH]c2ccccc12)NC(=O)[C@H](Cc1c[nH]cn1)NC(=O)[C@@H](Cc1ccccc1)NC(=O)CN1CCC(NC(=O)CN2CCN(CC(=O)O)CCN(CC(=O)O)CCN(CC(=O)O)CC2)CC1)C(C)(C)C)C(=O)N1CSC[C@H]1C(N)=O [^68Ga-LW01142, metal not drawn] ({DOTA}-[X1][dF]HWA[Tle]G[NMeH]L[Thz]-NH2)
0.47

Data request, read-out tissue uptake at 1 h, for CC(C)C[C@H](NC(=O)[C@H](Cc1cnc[nH]1)N(C)C(=O)CNC(=O)[C@@H](NC(=O)[C@H](C)NC(=O)[C@H](Cc1c[nH]c2ccccc12)NC(=O)[C@H](CCC(N)=O)NC(=O)[C@@H](Cc1ccccc1)NC(=O)CN1CCC(NC(=O)CN2CCN(CC(=O)O)CCN(CC(=O)O)CCN(CC(=O)O)CC2)CC1)C(C)(C)C)C(=O)N1CSC[C@H]1C(N)=O [^68Ga-LW01110, metal not drawn]
0.12

Data request, read-out tissue uptake at 1 h, for CC(C)C[C@H](NC(=O)[C@H](Cc1c[nH]cn1)NC(=O)CNC(=O)[C@@H](NC(=O)[C@H](C)NC(=O)[C@H](Cc1c[nH]c2ccccc12)NC(=O)[C@H](CCC(N)=O)NC(=O)[C@@H](Cc1ccccc1)NC(=O)CN1CCC(NC(=O)CN2CCN(CC(=O)O)CCN(CC(=O)O)CCN(CC(=O)O)CC2)CC1)C(C)(C)C)C(=O)N1CSC[C@H]1C(N)=O [^68Ga-LW01108, metal not drawn]
0.15

Data request, read-out tissue uptake at 1 h, for CC(C)C[C@H](NC(=O)[C@H](Cc1c[nH]cn1)N(C)C(=O)CNC(=O)[C@@H](NC(=O)[C@H](C)NC(=O)[C@H](Cc1c[nH]c2ccccc12)NC(=O)[C@H](CCC(N)=O)NC(=O)[C@@H](Cc1ccccc1)NC(=O)CN1CCC(NC(=O)CN2CCN(CC(=O)O)CCN(CC(=O)O)CCN(CC(=O)O)CC2)CC1)C(C)C)C(=O)N1CSC[C@H]1C(N)=O [^68Ga-LW01107, metal not drawn]
0.06

Further cases:
Data request, read-out tissue uptake at 1 h, for CC(C)C[C@@H](CN1CSC[C@H]1C(N)=O)NC(=O)[C@H](Cc1c[nH]cn1)NC(=O)CNC(=O)[C@@H](NC(=O)[C@H](C)NC(=O)[C@H](Cc1c[nH]c2ccccc12)NC(=O)[C@H](CCC(N)=O)NC(=O)[C@@H](Cc1ccccc1)NC(=O)CN1CCC(NC(=O)CN2CCN(CC(=O)O)CCN(CC(=O)O)CCN(CC(=O)O)CC2)CC1)C(C)(C)C [^68Ga-LW01158, metal not drawn] ({DOTA}-[X1][dF]QWA[Tle]GH-{Leuψ(CH2N)ThzNH2})
0.13

* * *

Recorded measurements of tissue uptake at 1 h, one per entry
- Assay procedure: Ex vivo biodistribution in PC-3 tumor-bearing mice
- Test context: male, NRG, mouse, PC-3 tumor, iv, total radioactivity, Biodistribution PC3 tumor Mean, 1 h post-injection, mice bearing PC-3 tumor xenografts, n = 4
Numbered stars: 1 amine (or outer) side, 2 acyl side, 3 side chain; on linkers, the order of the positions; unused ones are H or OH. Square brackets hold non-standard residues; d marks the D form. Peptide text beside a SMILES is read from it. * marks the point of attachment. DOTA = O=C(O)CN1CCN(CC(=O)O)CCN(CC(=O)*)CCN(CC(=O)O)CC1; NMeH = CN[C@@H](Cc1c[nH]cn1)C(=O)O; X1 = O=C(CN1CCC(N[*:1])CC1)[*:2]; Tle = CC(C)(C)[C@H](N)C(=O)O; Thz = O=C(O)[C@@H]1CSCN1
Entry rule: numbers only, all in %ID/g.

Before answering, review these 4 worked examples.
Data request, read-out tissue uptake at 1 h, for CC(C)C[C@@H](CN1CSC[C@H]1C(N)=O)NC(=O)[C@H](Cc1cnc[nH]1)NC(=O)CN(C)C(=O)[C@@H](NC(=O)[C@H](C)NC(=O)[C@H](Cc1c[nH]c2ccccc12)NC(=O)[C@H](CCC(N)=O)NC(=O)[C@@H](Cc1ccccc1)NC(=O)CN1CCC(NC(=O)CN2CCN(CC(=O)O)CCN(CC(=O)O)CCN(CC(=O)O)CC2)CC1)C(C)C [^68Ga-LW01090, metal not drawn]
15.7

Data request, read-out tissue uptake at 1 h, for CC(C)C[C@@H](CN1CSC[C@H]1C(N)=O)NC(=O)[C@H](Cc1c[nH]cn1)NC(=O)CNC(=O)[C@@H](NC(=O)[C@H](C)NC(=O)[C@H](Cc1c[nH]c2ccccc12)NC(=O)[C@H](CCC(N)=O)NC(=O)[C@@H](Cc1ccccc1)NC(=O)CN1CCC(NC(=O)CN2CCN(CC(=O)O)CCN(CC(=O)O)CCN(CC(=O)O)CC2)CC1)C(C)C [^68Ga-LW01045, metal not drawn]
10.2

Data request, read-out tissue uptake at 1 h, for CC(C)C[C@@H](CN1CSC[C@H]1C(N)=O)NC(=O)[C@H](Cc1c[nH]cn1)NC(=O)CNC(=O)[C@@H](NC(=O)[C@H](C)NC(=O)[C@H](Cc1c[nH]c2ccccc12)NC(=O)[C@H](CCC(N)=O)NC(=O)[C@@H](Cc1ccc2ccccc2c1)NC(=O)CN1CCC(NC(=O)CN2CCN(CC(=O)O)CCN(CC(=O)O)CCN(CC(=O)O)CC2)CC1)C(C)C [^68Ga-LW01059, metal not drawn]
6.84

Data request, read-out tissue uptake at 1 h, for CC(C)C[C@H](NC(=O)[C@H](Cc1cnc[nH]1)N(C)C(=O)CNC(=O)[C@@H](NC(=O)[C@H](C)NC(=O)[C@H](Cc1c[nH]c2ccccc12)NC(=O)[C@H](Cc1c[nH]cn1)NC(=O)[C@@H](Cc1ccccc1)NC(=O)CN1CCC(NC(=O)CN2CCN(CC(=O)O)CCN(CC(=O)O)CCN(CC(=O)O)CC2)CC1)C(C)(C)C)C(=O)N1CSC[C@H]1C(N)=O [^68Ga-LW01142, metal not drawn] ({DOTA}-[X1][dF]HWA[Tle]G[NMeH]L[Thz]-NH2)
11.4

Now look at this entry.
Data request, read-out tissue uptake at 1 h, for CC(C)C[C@H](NC(=O)[C@H](Cc1cnc[nH]1)N(C)C(=O)CNC(=O)[C@@H](NC(=O)[C@H](C)NC(=O)[C@H](Cc1c[nH]c2ccccc12)NC(=O)[C@H](CCC(N)=O)NC(=O)[C@@H](Cc1ccccc1)NC(=O)CN1CCC(NC(=O)CN2CCN(CC(=O)O)CCN(CC(=O)O)CCN(CC(=O)O)CC2)CC1)C(C)(C)C)C(=O)N1CSC[C@H]1C(N)=O [^68Ga-LW01110, metal not drawn]
16.6

* * *

- Assay procedure: Ex vivo biodistribution in PC-3 tumor-bearing mice
- Test context: male, NRG, mouse, bone, iv, total radioactivity, Biodistribution Bone Mean, 1 h post-injection, mice bearing PC-3 tumor xenografts, n = 4
Test readout: tissue uptake at 1 h

Data request, read-out tissue uptake at 1 h, for CC(C)C[C@@H](CN1CSC[C@H]1C(N)=O)NC(=O)[C@H](Cc1c[nH]cn1)NC(=O)CNC(=O)[C@@H](NC(=O)[C@H](C)NC(=O)[C@H](Cc1c[nH]c2ccccc12)NC(=O)[C@H](CCC(N)=O)NC(=O)[C@@H](Cc1ccc2ccccc2c1)NC(=O)CN1CCC(NC(=O)CN2CCN(CC(=O)O)CCN(CC(=O)O)CCN(CC(=O)O)CC2)CC1)C(C)C [^68Ga-LW01059, metal not drawn]
0.42 %ID/g

* * *

- Assay procedure: Ex vivo biodistribution in PC-3 tumor-bearing mice
- Test context: male, NRG, mouse, whole blood, iv, total radioactivity, Biodistribution Blood Mean, 1 h post-injection, mice bearing PC-3 tumor xenografts, n = 4
Recorded measurements of tissue uptake at 1 h, one per entry
// unit must come after the numeric part

Data request, read-out tissue uptake at 1 h, for CC(C)C[C@H](NC(=O)[C@H](Cc1c[nH]cn1)NC(=O)CNC(=O)[C@@H](NC(=O)[C@H](C)NC(=O)[C@H](Cc1c[nH]c2ccccc12)NC(=O)[C@H](CCC(N)=O)NC(=O)[C@@H](Cc1ccc2ccccc2c1)NC(=O)CN1CCC(NC(=O)CN2CCN(CC(=O)O)CCN(CC(=O)O)CCN(CC(=O)O)CC2)CC1)C(C)C)C(=O)N1CSC[C@H]1C(N)=O [^68Ga-LW01029, metal not drawn]
1.08 %ID/g

Further cases:
Data request, read-out tissue uptake at 1 h, for CC(C)C[C@H](NC(=O)[C@H](Cc1c[nH]cn1)NC(=O)CNC(=O)[C@@H](NC(=O)[C@H](C)NC(=O)[C@H](Cc1c[nH]c2ccccc12)NC(=O)[C@H](CCC(N)=O)NC(=O)[C@@H](Cc1ccccc1)NC(=O)CN1CCC(NC(=O)CN2CCN(CC(=O)O)CCN(CC(=O)O)CCN(CC(=O)O)CC2)CC1)C(C)C)C(=O)N1CSC[C@H]1C(N)=O [^68Ga-LW01025, metal not drawn]
0.34 %ID/g

Data request, read-out tissue uptake at 1 h, for CC(C)C[C@@H](CN1CSC[C@H]1C(N)=O)NC(=O)[C@H](Cc1cnc[nH]1)NC(=O)CN(C)C(=O)[C@@H](NC(=O)[C@H](C)NC(=O)[C@H](Cc1c[nH]c2ccccc12)NC(=O)[C@H](CCC(N)=O)NC(=O)[C@@H](Cc1ccccc1)NC(=O)CN1CCC(NC(=O)CN2CCN(CC(=O)O)CCN(CC(=O)O)CCN(CC(=O)O)CC2)CC1)C(C)C [^68Ga-LW01090, metal not drawn]
0.76 %ID/g
